Test system: AMO-1 human multiple myeloma tumor cell line
Test: AMO-1 cell viability assay (CellTiter-Glo, 24 hours)
Type: cell-based
Conditions: Homo sapiens, AMO1, 24 h, read-out: AMO-1 Viability IC50 (μM, 10% FBS), 10% FBS, 24 hours of compound treatment
Listed next: entries and their corresponding IC50.
test_readout: IC50 (µM)

1) Cc1c(Cl)c2c(Cl)c(C)c1-c1c(-c3ccc(F)cc3)sc3ncnc(c13)O[C@@H](C(=O)O)Cc1cc(ccc1OCc1ccnc(-c3ccc(OC[C@@H]4CN(C)CCCO4)cc3)n1)OC[C@@H](CN1CCN(C)CC1)O2: 0.00114
2) COCCOCCOCCO[C@H]1CC[C@H](c2nccc(COc3ccc4cc3C[C@H](C(=O)O)Oc3ncnc5sc(C6CCC6)c(c35)-c3c(C)c(Cl)c(c(Cl)c3C)O[C@H](CN3CCN(C)CC3)CO4)n2)CC1: 0.000367

###

Target: GST-MCL-1 (Homo sapiens)
Test: TR-FRET MCL-1 binding assay (competition with probe F-Bak)
Conditions: without HS; read-out: MCL-1 Binding Ki
Listed next: entries and their corresponding Ki.
test_readout: Ki

1) Cc1c(Cl)c2c(Cl)c(C)c1-c1c(-c3ccc(F)cc3)sc3ncnc(c13)O[C@@H](C(=O)O)Cc1cc(ccc1OCc1ccnc(N3CC4CC(C4)C3)n1)OC[C@@H](CN1CCN(C)CC1)O2 [Example 171]: 0.1 nM
2) CO[C@H]1O[C@H](COc2ccc(-c3nccc(COc4ccc5cc4C[C@H](C(=O)O)Oc4ncnc6sc(-c7ccc(F)cc7)c(c46)-c4ccc(c(Cl)c4C)O[C@H](CN4CCN(C)CC4)CO5)n3)cc2)[C@@H](OC)[C@H](OC)[C@@H]1OC [Example 14]: 0.124 nM

###

Biological target: GST-MCL-1 (Homo sapiens, UniProt Q07820)
Sequence (Q07820 whole entry): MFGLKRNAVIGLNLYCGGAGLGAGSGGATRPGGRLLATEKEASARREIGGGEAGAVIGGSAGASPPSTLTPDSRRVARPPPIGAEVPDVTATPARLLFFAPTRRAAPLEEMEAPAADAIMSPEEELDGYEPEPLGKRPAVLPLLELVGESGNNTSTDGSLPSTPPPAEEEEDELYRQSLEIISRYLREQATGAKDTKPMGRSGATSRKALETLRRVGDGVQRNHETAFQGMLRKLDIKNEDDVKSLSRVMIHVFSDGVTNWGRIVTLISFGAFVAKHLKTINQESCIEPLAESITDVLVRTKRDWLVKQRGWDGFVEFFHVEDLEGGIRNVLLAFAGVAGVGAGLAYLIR
Test: TR-FRET MCL-1 binding assay (competition with probe F-Bak)
Settings: MCL-1 Binding Ki (nM, 10% HS), in the presence of 10% HS (human serum)
test_readout: Ki (nM)

1) Cc1c(Cl)c2c(Cl)c(C)c1-c1c(-c3ccc(F)cc3)sc3ncnc(c13)O[C@@H](C(=O)O)Cc1cc(ccc1OCc1ccnc(-c3ccc(OCCN4CCOCC4)cc3)n1)OC[C@@H](CN1CCN(C)CC1)O2: 0.671
2) COCCOCCOCCOCCOCCOC[C@]1(F)CC[C@@H](c2nccc(COc3ccc4cc3C[C@H](C(=O)O)Oc3ncnc5sc(-c6ccc(F)cc6)c(c35)-c3c(C)c(Cl)c(c(Cl)c3C)O[C@H](CN3CCN(C)CC3)CO4)n2)CC1: 0.065
3) COCCOCCOCCC1CCN(C[C@@H]2COc3ccc(OCc4ccnc(-c5ccccc5OC)n4)c(c3)C[C@H](C(=O)O)Oc3ncnc4sc(-c5ccc(F)cc5)c(c34)-c3ccc(c(Cl)c3C)O2)CC1 (atropisomer, axis not shown) [Example 27]: 22
4) COCCOCCOCCOCCOCCOCCO[C@H]1CC[C@H](c2nccc(COc3ccc4cc3C[C@H](C(=O)O)Oc3ncnc5sc(-c6ccc(F)cc6)c(c35)-c3c(C)c(Cl)c(c(Cl)c3C)O[C@H](CN3CCN(C)CC3)CO4)n2)CC1: 0.073

###

Target: GST-MCL-1 (Homo sapiens)
Test: TR-FRET MCL-1 binding assay (competition with probe F-Bak)
Settings: MCL-1 Binding Ki (nM, 10% HS), in the presence of 10% HS (human serum)
test_readout: Ki (nM)

1. COCCOCCOCCOCC1(C)CC=C(c2nccc(COc3ccc4cc3C[C@H](C(=O)O)Oc3ncnc5sc(-c6ccc(F)cc6)c(c35)-c3c(C)c(Cl)c(c(Cl)c3C)O[C@H](CN3CCN(C)CC3)CO4)n2)CC1 (single isomer, unassigned) [Example 112]: 0.217
2. COCCOCCOCCOCC1(F)CC=C(c2nccc(COc3ccc4cc3C[C@H](C(=O)O)Oc3ncnc5sc(C6=CCCC6)c(c35)-c3c(C)c(Cl)c(c(Cl)c3C)O[C@H](CN3CCN(C)CC3)CO4)n2)CC1 (single isomer, unassigned) [Example 125]: 0.455
3. Cc1c(Cl)c2c(Cl)c(C)c1-c1c(-c3ccc(F)cc3)sc3ncnc(c13)O[C@@H](C(=O)O)Cc1cc(ccc1OCc1ccnc(N3CCOCCOCCOCCOCC3)n1)OC[C@@H](CN1CCN(C)CC1)O2 [Example 115]: 0.862
4. Cc1c(Cl)c2c(Cl)c(C)c1-c1c(-c3ccc(F)cc3)sc3ncnc(c13)O[C@@H](C(=O)O)Cc1cc(ccc1OCc1ccnc(C3=CCC(CC(=O)O)CC3)n1)OC[C@@H](CN1CCN(C)CC1)O2 (single isomer, unassigned) [Example 35]: 0.113

###

Target: UniProt:Q07820
Assay: TR-FRET MCL-1 binding assay (competition with probe F-Bak)
Conditions: MCL-1 Binding Ki (nM, 10% HS), in the presence of 10% HS (human serum)
test_readout: Ki

1. COCCOCCOCCOC[C@@H]1CN(c2nccc(COc3ccc4cc3C[C@H](C(=O)O)Oc3ncnc5sc(-c6ccc(F)cc6)c(c35)-c3c(C)c(Cl)c(c(Cl)c3C)O[C@H](CN3CCN(C)CC3)CO4)n2)CCO1: 0.209 nM
2. COCCOCCOCCOCCOCC1(c2nccc(COc3ccc4cc3C[C@H](C(=O)O)Oc3ncnc5sc(-c6ccc(F)cc6)c(c35)-c3c(C)c(Cl)c(c(Cl)c3C)O[C@H](CN3CCN(C)CC3)CO4)n2)CCC1: 0.161 nM
3. COCC(COC)Oc1ccc(-c2nccc(COc3ccc4cc3C[C@H](C(=O)O)Oc3ncnc5sc(-c6ccc(F)cc6)c(c35)-c3c(C)c(Cl)c(c(Cl)c3C)O[C@H](CN3CCN(C)CC3)CO4)n2)cc1: 49.9 nM
4. COCCOCCOCCOCC1(F)CC=C(c2nccc(COc3ccc4cc3C[C@H](C(=O)O)Oc3ncnc5sc(-c6ccc(F)cc6)c(c35)-c3c(C)c(Cl)c(c(Cl)c3C)O[C@H](CN3CCN(C)CC3)CO4)n2)CC1 (single isomer, unassigned) [Example 101]: 0.235 nM
5. COCCOCCOCC1(F)CC=C(c2nccc(COc3ccc4cc3C[C@H](C(=O)O)Oc3ncnc5sc(C6CCC6)c(c35)-c3c(C)c(Cl)c(c(Cl)c3C)O[C@H](CN3CCN(C)CC3)CO4)n2)CC1 (single isomer, unassigned): 1.74 nM
6. COCCOCCOCCOc1cccc(COc2ccc3cc2C[C@H](C(=O)O)Oc2ncnc4sc(-c5ccc(F)cc5)c(c24)-c2c(C)c(Cl)c(c(Cl)c2C)O[C@H](CN2CCN(C)CC2)CO3)n1: 6.17 nM
7. Cc1c(Cl)c2c(Cl)c(C)c1-c1c(-c3ccc(F)cc3)sc3ncnc(c13)O[C@@H](C(=O)O)Cc1cc(ccc1OCc1ccnc(C3CCS(=O)(=O)CC3)n1)OC[C@@H](CN1CCN(C)CC1)O2: 0.085 nM
8. COCCOCCOCCOc1ccc(-c2nccc(COc3ccc4cc3C[C@H](C(=O)O)Oc3ncnc5sc(-c6ccc(F)cc6)c(c35)-c3c(C)c(Cl)c(c(Cl)c3C)O[C@H](CN3CCN(C)CC3)CO4)n2)cc1: 0.359 nM
9. COCCOCCOCCOCCOCCOCC1(c2nccc(COc3ccc4cc3C[C@H](C(=O)O)Oc3ncnc5sc(-c6ccc(F)cc6)c(c35)-c3c(C)c(Cl)c(c(Cl)c3C)O[C@H](CN3CCN(C)CC3)CO4)n2)CCCC1: 0.634 nM

###

Tested on: AMO-1 human multiple myeloma tumor cell line
Assay: AMO-1 cell viability assay (CellTiter-Glo, 24 hours)
Format: cell-based
Conditions: Homo sapiens, AMO1, 24 h, read-out: AMO-1 Viability IC50 (μM, 10% FBS), 10% FBS, 24 hours of compound treatment
test_readout: log10(IC50) (log10 of the value in µM)

1) COCCOCCOCCOc1ccc(-c2nccc(COc3ccc4cc3C[C@H](C(=O)O)Oc3ncnc5sc(-c6ccc(F)cc6)c(c35)-c3c(C)c(Cl)c(c(Cl)c3C)O[C@H](CN3CCN(C)CC3)CO4)n2)cc1: -3.75
2) Cc1c(Cl)c2c(Cl)c(C)c1-c1c(-c3ccc(F)cc3)sc3ncnc(c13)O[C@@H](C(=O)O)Cc1cc(ccc1OCc1ccnc(C(CO)CO)n1)OC[C@@H](CN1CCN(C)CC1)O2: -1.60
3) Cc1c(Cl)c2c(Cl)c(C)c1-c1c(-c3ccc(F)cc3)sc3ncnc(c13)O[C@@H](C(=O)O)Cc1cc(ccc1OCc1ccnc(-c3ccc(OCCN4CCP(C)(=O)CC4)cc3)n1)OC[C@@H](CN1CCN(C)CC1)O2: -2.33
4) Cc1c(Cl)c2c(Cl)c(C)c1-c1c(-c3ccc(F)cc3)sc3ncnc(c13)O[C@@H](C(=O)O)Cc1cc(ccc1OCc1ccnc(N3CCC(C)(CC(=O)O)CC3)n1)OC[C@@H](CN1CCN(C)CC1)O2: -1.80
5) COCCOCCOCCOc1cccc(COc2ccc3cc2C[C@H](C(=O)O)Oc2ncnc4sc(-c5ccc(F)cc5)c(c24)-c2c(C)c(Cl)c(c(Cl)c2C)O[C@H](CN2CCN(C)CC2)CO3)c1: -2.34
6) COCCOCCOCCOCCOCCO[C@H]1CC[C@@H](c2nccc(COc3ccc4cc3C[C@H](C(=O)O)Oc3ncnc5sc(-c6ccc(F)cc6)c(c35)-c3c(C)c(Cl)c(c(Cl)c3C)O[C@H](CN3CCN(C)CC3)CO4)n2)CC1: -3.25
7) Cc1c(Cl)c2c(Cl)c(C)c1-c1c(-c3ccc(F)cc3)sc3ncnc(c13)O[C@@H](C(=O)O)Cc1cc(ccc1OCc1ccnc(-c3ccc(OC[C@H](O)CO)cc3)n1)OC[C@@H](CN1CCN(C)CC1)O2: -2.88
8) COCCOCCOCCOCCOCC1(c2nccc(COc3ccc4cc3C[C@H](C(=O)O)Oc3ncnc5sc(-c6ccc(F)cc6)c(c35)-c3c(C)c(Cl)c(c(Cl)c3C)O[C@H](CN3CCN(C)CC3)CO4)n2)CCC1: -3.42
9) CO[C@@H]1CO[C@H]2[C@@H]1OC[C@H]2OCCOCCOc1ccc(-c2nccc(COc3ccc4cc3C[C@H](C(=O)O)Oc3ncnc5sc(-c6ccc(F)cc6)c(c35)-c3c(C)c(Cl)c(c(Cl)c3C)O[C@H](CN3CCN(C)CC3)CO4)n2)cc1: -3.53
10) COCCOCCOCCOc1ccc(-c2nccc(COc3ccc4cc3C[C@H](C(=O)O)Oc3ncnc5sc(C6CCCCC6)c(c35)-c3c(C)c(Cl)c(c(Cl)c3C)O[C@H](CN3CCN(C)CC3)CO4)n2)cc1: -3.74
11) COCCOCCOCCOCc1ccc(-c2nccc(COc3ccc4cc3C[C@H](C(=O)O)Oc3ncnc5sc(-c6ccc(F)cc6)c(c35)-c3c(C)c(Cl)c(c(Cl)c3C)O[C@H](CN3CCN(C)CC3)CO4)n2)c(OCCOCCOCCOC)c1: -2.14
12) Cc1c(Cl)c2c(Cl)c(C)c1-c1c(-c3ccc(F)cc3)sc3ncnc(c13)O[C@@H](C(=O)O)Cc1cc(ccc1OCc1ccnc(C3CCS(=O)(=O)C3)n1)OC[C@@H](CN1CCN(C)CC1)O2 (some centres unmarked): -2.58
13) Cc1c(Cl)c2c(Cl)c(C)c1-c1c(-c3ccc(F)cc3)sc3ncnc(c13)O[C@@H](C(=O)O)Cc1cc(ccc1OCc1ccnc(N3CC4(C3)CC(F)(F)C4)n1)OC[C@@H](CN1CCN(C)CC1)O2: -2.56
14) COCCOCCOCCOCCOc1nccc(COc2ccc3cc2C[C@H](C(=O)O)Oc2ncnc4sc(-c5ccc(F)cc5)c(c24)-c2c(C)c(Cl)c(c(Cl)c2C)O[C@H](CN2CCN(C)CC2)CO3)n1: -2.58
15) Cc1c(Cl)c2c(Cl)c(C)c1-c1c(-c3ccc(F)cc3)sc3ncnc(c13)O[C@@H](C(=O)O)Cc1cc(ccc1OCc1ccnc(-c3ccc(OC[C@@H]4CN(C)CCO4)cc3)n1)OC[C@@H](CN1CCN(C)CC1)O2: -3.63
16) Cc1c(Cl)c2c(Cl)c(C)c1-c1c(-c3ccc(F)cc3)sc3ncnc(c13)O[C@@H](C(=O)O)Cc1cc(ccc1OCc1ccnc(-c3ccc(S(=O)(=O)N4CCOCC4)cc3)n1)OC[C@@H](CN1CCN(C)CC1)O2: -3.39
17) Cc1c(Cl)c2c(Cl)c(C)c1-c1c(-c3ccc(F)cc3)sc3ncnc(c13)O[C@@H](C(=O)O)Cc1cc(ccc1OCc1ccnc(N3C[C@@H]4[C@H](C3)[C@H]4C(=O)O)n1)OC[C@@H](CN1CCN(C)CC1)O2: -0.49
